test system: Inhibin beta A chain (activin A); assay: INHBA (activin A) binders on microarrays, primary screen, biochemical, small-molecule microarray, 635 nm fluorescence scan (AID 1107); details: small-molecule microarray binding, higher = more signal;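 also: mouse activin A protein probed at 4.33 µg/mL on printed slides; score merges bound-protein fluorescence near 667 nm with spot signal-to-noise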
assay.readout: composite z-score

# smiles.text, composite z-score
records = [
    ("C=CCNC(=O)[C@@H]1[C@H]2C(=O)O[C@H](c3ccccc3)[C@H](c3ccccc3)N2[C@H](c2ccc(OCCO)cc2)[C@@]12C(=O)N(C(=O)OCCOC)c1ccc(C#CCCO)cc12", 0.63),
    ("CC(=O)NCCCC[C@@H]1NC(=O)[C@@H]2C[C@H](C(=O)NCCCCCCN)[C@H](c3cccc(OCCO)c3)N2C1=O", 0.288),
    ("CC(C)C(=C=CC[C@@H](O)c1cccc(OCCO)c1)C[C@@H](O)COCc1ccccc1", 0.198),
]

Query: Can you look up the measured composite z-score of COc1ccc([Si](C)(C)[C@H]2[C@H](CCO)O[C@@]3(C(=O)N(Cc4ccccc4)c4ccc(N5C(=O)c6ccccc6Oc6ccccc65)cc43)[C@@H]2C)cc1 for me?
Result: 0.201

---

assay: small-molecule binders of probe aNOTCH3, primary screen, biochemical, small-molecule microarray, 635/667 nm fluorescence (AID 1120); details: higher = more signal;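 also: probe is a biotin-tagged antibody raised against NOTCH3 rather than NOTCH3 protein; score merges spot fluorescence near 667 nm with spot signal to noise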
For each record, write down the corresponding composite z-score.
Give bare numbers.

Some entries whose results are on file:
# compound, composite z-score
records = [
    ("COC(=O)C1N=C(c2ccc(OCCCO)cc2)N(c2ccccc2)O1 (stereo unspecified)", 0.187),
    ("C=CCNC(=O)[C@H]1[C@@H]2C(=O)O[C@@H](c3ccccc3)[C@@H](c3ccccc3)N2[C@@H](c2ccc(OCCO)cc2)[C@]12C(=O)N(C(=O)OCCOC)c1ccc(C#Cc3ccc(OC)cc3)cc12", 0.154),
    ("NC(=O)NCC#Cc1ccc2c(c1)[C@]1(C(=O)N2)[C@H](C(=O)N2CCN(c3ncccn3)CC2)[C@H]2C(=O)O[C@H](c3ccccc3)[C@H](c3ccccc3)N2[C@@H]1c1ccc(OCCO)cc1", 0.127),
]

# batch size: 4; output composite z-score per entry
1. [N-]=[N+]=NCc1ccccc1[C@@H]1OC(c2ccc(OCCCO)cc2)=N[C@]1(Cc1ccccc1)C(=O)NCCN1CCOCC1
2. COc1ccc([Si](C)(C)[C@@H]2[C@@H](CC(=O)N3Cc4ccccc4C[C@H]3CO)O[C@]3(C(=O)N(c4ccccc4)c4ccccc43)[C@H]2C)cc1
3. O=C1O[C@H](c2ccccc2)[C@H](c2ccccc2)N2[C@H]1[C@@H](C(=O)N1CCCCCCC1)[C@]1(C(=O)Nc3ccc(C#CC4(O)CCCCCC4)cc31)[C@H]2c1ccccc1OCCO
4. CCCNC(=O)[C@@]1(C)c2ccccc2C(=O)N(Cc2ccccc2)[C@H]1c1ccc(CO)cc1

Result:
1: 0.369; 2: 0.146; 3: 2.18; 4: -0.128

# batch size: 2; output composite z-score per entry
1. COc1cc2c(cc1O)C(c1ccc(CN3CCCC3)cc1)N(C)CC2 (stereo unspecified)
2. COc1cc(NN2C(C(O)c3ccc(I)cc3)C=CC3C(=O)N(c4ccccc4)C(=O)C32)cc(OC)c1OC (stereo unspecified)

Result:
1. -0.173
2. 0.185

# batch size: 3; output composite z-score per entry
1. CCCC=C(CCC)[C@@H](NC(=O)CCc1ccccc1)c1ccc(C(F)(F)F)cc1
2. C=C[C@H](C)[C@H](OC(=O)Nc1ccc(OC)cc1)c1ccc(OCCO)cc1
3. CC(C)c1ccc(NN2C(C(O)Cc3ccccc3)C=CC3C(=O)N(c4ccccc4)C(=O)C32)cc1 (stereo unspecified)

Result:
1: 0.265; 2: -0.279; 3: 0.428

# batch size: 7; output composite z-score per entry
1. [N-]=[N+]=Nc1ccccc1C[C@]1(C(=O)NCc2ccccc2)COC(c2ccc(OCCCO)cc2)=N1
2. COc1ccc(NC(=O)O[C@H]2[C@@H]3OC(=O)[C@H](Cc4cccc(Br)c4)C/C=C/C[C@@H](Cc4cccc(Br)c4)C(=O)O[C@H]3[C@@H](OC)O[C@@H]2CO)cc1
3. O=C1c2ccccc2[C@](Cc2ccccc2I)(C(=O)NC2CC2)[C@H](c2ccc(CO)cc2)N1Cc1ccccc1C(F)(F)F
4. CCCNC(=O)[C@@]1(Sc2ccc(C)cc2)CC(=O)N(C(C)C)[C@@H]1c1ccc(CO)cc1I
5. O=C1C2C=CC(C(O)c3cc(C(F)(F)F)cc(C(F)(F)F)c3)N(Nc3ccccc3F)C2C(=O)N1c1ccccc1 (stereo unspecified)
6. O=C1C2C=CC(C(O)C=Cc3ccc([N+](=O)[O-])cc3)N(Nc3ccccc3)C2C(=O)N1c1ccccc1 (stereo unspecified)
7. C#C[C@@H](CC)O[Si](C#CCCCC#N)(C(C)C)C(C)C

Result:
[0.0945, 0.111, 0.134, -0.219, 0.114, 0.346, -0.0391]

---

test system: XIP peptide (Xip251-270); assay: small-molecule binders of XIP peptide, primary screen, biochemical, small-molecule microarray, fluorescence 635/667 nm, 0.5 µg/mL protein (AID 1183); conditions: small-molecule microarray binding, fluorescence 635 nm; higher = more signal
assay.readout: composite z-score
Numbers only.

# smiles.text, composite z-score
data = [
    ("CCOC(=O)C[C@H]1[C@H](OC(=O)c2cc3ccccc3oc2=O)[C@@H](NC(=O)c2ccc3ccccc3c2)c2cc(OCCCO)ccc2N1C(=O)Cc1ccc(OC)cc1", 0.335),
]

# batch size: 3; output composite z-score per entry
1. COC(=O)C(CC#Cc1ccc2c(c1)[C@]1(C(=O)N2)[C@H](c2ccc(O)cc2)N2[C@H](c3ccccc3)[C@H](c3ccccc3)OC(=O)[C@H]2[C@@H]1C(=O)N1CCCCCCC1)C(=O)OC
2. CC(C)CNC(=O)[C@@]1(C)c2ccccc2C(=O)N(Cc2cc(C(F)(F)F)cc(C(F)(F)F)c2)[C@H]1c1ccc(CO)cc1
3. O=C1O[C@H](c2ccccc2)[C@H](c2ccccc2)N2[C@H]1[C@@H](C(=O)O)[C@]1(C(=O)Nc3ccc(C#CC4(O)CCCCCC4)cc31)[C@H]2c1ccc(O)cc1

Result:
[0.59, 0.145, 0.194]

# batch size: 2; output composite z-score per entry
1. [N-]=[N+]=NCc1ccccc1C[C@@]1(C(=O)N2CCCCC2)N=C(c2ccc(OCCCO)cc2)O[C@@H]1c1ccccc1CN=[N+]=[N-]
2. [N-]=[N+]=NCc1ccccc1[C@@H]1OC(c2ccc(OCCCO)cc2)=N[C@]1(Cc1ccccc1N=[N+]=[N-])C(=O)N1CCCCC1

Result:
-0.0651
0.724

---

For each record, write down the corresponding z-score.
test: A549 lung cancer cell viability effects, profiling panel, resazurin fluorescence, 24 h, PK04 Diversity Set (AID 1171); settings: higher = more signal, called active from +8 up or from −8 down
One number for each entry.

Some entries whose results are on file:
# compound, assay.result
records = [
    ("CC(C)C[C@@H]1NC(=O)[C@@H]2C[C@H](C(=O)NCCCCCC[N+](C)(C)C)[C@H](c3cccc(OCCO)c3)N2C1=O", -0.483),
    ("CCOC(=O)C1=C[C@@H](C(C)(C)C)N(S(=O)(=O)c2ccc(C)cc2)[C@H]1c1cccc(Cl)c1", -1.12),
    ("CCCCC(=C=CC[C@H](O)c1ccc(OCCO)cc1)C[C@H](O)c1cc(Cl)cc(Cl)c1O", 1.17),
]

Query: Can you look up the measured z-score of CCOC(=O)C1=CCC(c2ccccc2)N(S(=O)(=O)c2ccc([N+](=O)[O-])cc2)C1 (centres undefined) for me?
Result: 0.217

---

assay: S. cerevisiae RM11-1a growth modifiers, primary screen, strain RM11-1a, OD600, basal, 24 h (AID 1177); settings: OD600, 24 h, higher = more signal, called active from +8 up or from −8 down;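 also: cultures grown under basal conditions with no added stressor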
Active and inactive are the calls of the source.
For each record, write down the corresponding z-score.

Some entries whose results are on file:
# molecule, assay.result
rows = [
    ("C[C@]1(C(=O)NCCN2CCOCC2)c2ccccc2C(=O)N(Cc2cc(F)cc(C(F)(F)F)c2)[C@H]1c1ccc(CO)cc1", "0.0645 (inactive)"),
    ("CN1C(=O)C2C=CC(C(O)c3cc(C(F)(F)F)cc(C(F)(F)F)c3)N(Nc3ccccc3)C2C1=O (stereo unspecified)", "-0.478 (inactive)"),
]

# batch size: 4; output z-score per entry
1. C[C@]1(C(=O)NCC(F)(F)F)c2ccccc2C(=O)N(Cc2ccccc2)[C@H]1c1ccc(CO)cc1
2. O=C1C2C=CC(C(O)c3cccc(O)c3)N(Nc3ccccc3)C2C(=O)N1c1ccccc1 (stereo unspecified)
3. CCOC(=O)C[C@H]1[C@H](OC(=O)c2ccccc2-c2ccccc2)[C@@H](NC(=O)c2ccc3ccccc3n2)c2cc(OCCCO)ccc2N1C(=O)c1ccccc1
4. Cc1ccccc1C(O)C1C=CC2C(=O)N(c3ccccc3)C(=O)C2N1Nc1ccc([N+](=O)[O-])cc1 (stereo unspecified)

Result:
1. 0.433 (inactive)
2. 0.196 (inactive)
3. 1.01 (inactive)
4. -0.0035 (inactive)
